All values here come from PubChem BioAssay.

Experiment: PSAC antagonists in infected red cells, primary screen, cell-based, P. falciparum Indochina, OD700, 2 h (AID 1155);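 further: lysis reports solute entry through the parasite surface anion channel PSAC; channel blockers reduce lysis of infected cells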
Details: P. falciparum Indochina infected erythrocytes, osmotic lysis OD700; higher = more signal, called active from +8 up or from −8 down
measurementLabel: z-score
Lab note: record the figure alone, no unit after it.

# count of solved cases: 10
compound: C=CCC(OC(C)=O)[C@@H]1[C@@H](N(Cc2cccc3ccccc23)C(=O)c2ccc(-c3ccccc3)cc2)c2cc(OCCCO)ccc2N1C(=O)c1ccc2ccccc2c1 (some centres not stated)
measurementLabel: z-score
observedMeasurement: 0.396

compound: CCCCCCc1nc(-c2cc(C)c(OC)c(C)c2)cc2c1[Si](C(C)C)(C(C)C)OC2
measurementLabel: z-score
observedMeasurement: -0.0892

compound: C=C[C@H](OC)[C@@H](OC(=O)Nc1ccc(OC)cc1)c1ccc(O)c(F)c1
measurementLabel: z-score
observedMeasurement: 0.484

compound: COc1ccc([Si](C)(C)[C@@H]2[C@@H](CCO)O[C@]3(C(=O)N(Cc4ccc(N(C=O)c5ccccc5)cc4)c4ccccc43)[C@H]2C)cc1
measurementLabel: z-score
observedMeasurement: 2.33

compound: COC(=O)[C@@]1(Cc2ccc(F)cc2)[C@H]2c3cc(C(=O)N4CCCC4)n(Cc4ccc(S(C)(=O)=O)cc4)c3C[C@H]2CN1C(=O)c1ccccc1
measurementLabel: z-score
observedMeasurement: 0.675

compound: COc1cc2c(cc1OC)CN(C(=O)[C@@H]1[C@H]3C(=O)O[C@H](c4ccccc4)[C@H](c4ccccc4)N3[C@H](c3ccc(O)cc3)[C@@]13C(=O)Nc1ccccc13)CC2
measurementLabel: z-score
observedMeasurement: 0.216

compound: CN(C)CCCC[C@@H]1NC(=O)[C@H]2C[C@@H](C(=O)NCCCCCCN)[C@@H](c3ccc(O)cc3)N2C1=O
measurementLabel: z-score
observedMeasurement: 0.374

compound: COc1cccc(-c2cccc(=O)o2)c1
measurementLabel: z-score
observedMeasurement: 1.6

compound: COc1ccc([Si](C)(C)[C@@H]2[C@@H](CC(=O)N3CCC[C@H]3CO)O[C@]3(C(=O)N(c4ccccc4)c4ccccc43)[C@H]2C)cc1
measurementLabel: z-score
observedMeasurement: -0.748

compound: CCOC(=O)C[C@H]1[C@H](OC(=O)c2ccc(C(=O)c3ccccc3)cc2)[C@@H](NC(=O)c2ccc3ccccc3n2)c2cc(OCCCO)ccc2N1C(=O)c1ccccc1
measurementLabel: z-score
observedMeasurement: -0.136

Challenge: State its z-score for this compound: C=CCC(OC(C)=O)[C@@H]1[C@@H](N(Cc2ccc(-c3ccccc3)cc2)C(=O)Cc2ccc(OC)cc2)c2cc(OCCCO)ccc2N1C(=O)Cc1ccc2ccccc2c1 (some centres not stated)
Response given: 0.314

Challenge: State its z-score for this compound: C=CCOC(=O)[C@H]1[C@@H]2C(=O)O[C@@H](c3ccccc3)[C@@H](c3ccccc3)N2[C@@H](c2ccc(OCCOC(=O)[C@H]3C[C@H]4C(=O)N[C@@H](CCCC[N+](C)(C)C)C(=O)N4[C@H]3c3ccc(O)cc3)cc2)[C@]12C(=O)Nc1ccc(I)cc12
Response given: 1.69

Challenge: State its z-score for this compound: CC(C)=CCN[C@H](CO)c1ccccc1
Response given: -0.916

Challenge: State its z-score for this compound: CC(C)C(O)C1C=CC2C(=O)NC(=O)C2N1Nc1ccc(Cl)cc1Cl (configuration not stated)
Response given: 0.648

Challenge: State its z-score for this compound: COCCOC(=O)N1C(=O)[C@@]2(c3cc(C#CCC(C(=O)OC)C(=O)OC)ccc31)[C@H](C(=O)N1CCN(c3ncccn3)CC1)[C@H]1C(=O)O[C@H](c3ccccc3)[C@H](c3ccccc3)N1[C@@H]2c1ccccc1OCCO
Response given: 1.55

Challenge: State its z-score for this compound: CC(C)C[C@@H]1NC(=O)[C@@H]2C[C@H](C(=O)O)[C@H](c3cccc(OCCO)c3)N2C1=O
Response given: 0.373

Challenge: State its z-score for this compound: CCS[C@H]1[C@@H](C(=O)O)[C@H](c2ccc(C)cc2)N(S(=O)(=O)c2ccc(C)cc2)[C@@H]1CC
Response given: 1.02
